Data origin, for the record: the supplement of paper PMC13380429

- Tested on: Vero E6 infected with SARS-CoV-2
- procedure text: morphology score (similarity to uninfected cells); higher = more like uninfected cells
- condition label: 24 h

compound: CCOc1ccc(-c2ccc(Cn3c(CC(C)(C)C(=O)O)c(SC(C)(C)C)c4cc(OCc5ccc(C)cn5)ccc43)cc2)cn1 (0.833333 µM)
morphology score: 0.228
//
compound: NC[C@@H](O)CC(=O)O [aminohydroxybutyric-acid] (10 µM)
morphology score: 0.226
//
compound: CN1CCN(CC(=O)N2c3ccccc3C(=O)Nc3cccnc32)CC1 [pirenzepine] (10 µM)
morphology score: -0.00972
//
compound: CCOc1ccc2ccccc2c1C(=O)N[C@@H]1C(=O)N2[C@@H]1SC(C)(C)[C@@H]2C(=O)O [nafcillin] (10 µM)
morphology score: -0.164
//
compound: COc1cc2c(Nc3ccc(NC(=O)c4ccccc4)cc3)ncnc2cc1OCCCN1CCOCC1 (10 µM)
morphology score: -0.13
//
compound: Cn1cc([S+](C)[O-])c(=O)c2ccc(F)cc21 (stereo not drawn) [flosequinan] (10 µM)
morphology score: 0.195
//
compound: O=C(NC[C@H](O)CN1CCc2ccccc2C1)c1cc(NC2COC2)ncn1 (10 µM)
morphology score: -0.0443
//
compound: CC(=O)Oc1ccccc1C(=O)Oc1cccc(CO[N+](=O)[O-])c1 (10 µM)
morphology score: 0.178

* * *

- Tested on: Vero E6 infected with SARS-CoV-2
- procedure text: SARS-CoV-2 infection rate relative to infected DMSO; higher = more infection, active = 60 or less
- condition label: 24 h
Below is a list of entries, each paired with its recorded SARS-CoV-2 infection rate value.

compound: COc1ccc(-c2oc3cc(OC)ccc3c2C(=O)c2ccc(C#N)cc2)cc1 (10 µM)
SARS-CoV-2 infection rate: 97% (inactive)
--
compound: CCCCCNC(=N)N/N=C/c1c[nH]c2ccc(OC)cc12 [tegaserod] (10 µM)
SARS-CoV-2 infection rate: 100% (inactive)
--
compound: CCN(CC)CCOC(=O)C1(c2ccc([N+](=O)[O-])cc2)CCCC1 [nitrocaramiphen] (10 µM)
SARS-CoV-2 infection rate: 104% (inactive)
--
compound: O=C1COc2c(CCNCCN(C(=O)CCNCCc3ccc(Cl)c(Cl)c3)C3CCCCC3)ccc(O)c2N1 (10 µM)
SARS-CoV-2 infection rate: 100% (inactive)
--
compound: C[C@]12CC[C@H]3[C@@H](CC[C@]4(O)C[C@@H](O)CC[C@]34C=O)[C@@]1(O)CC[C@@H]2C1=CC(=O)OC1 [K-strophanthidin] (0.833333 µM)
SARS-CoV-2 infection rate: 92% (inactive)
--
compound: NC[C@@H](O)CC(=O)O [aminohydroxybutyric-acid] (10 µM)
SARS-CoV-2 infection rate: 92% (inactive)
--
compound: O=C(CCCCCCCC(=O)NCCO)NCCO [adelmidrol] (10 µM)
SARS-CoV-2 infection rate: 105% (inactive)
--
compound: C[C@H](NC(=O)[C@@H](O)c1cc(F)cc(F)c1)C(=O)N[C@@H]1C(=O)N(C)c2ccccc2-c2ccccc21 (10 µM)
SARS-CoV-2 infection rate: 101% (inactive)

* * *

- System: Vero E6 infected with SARS-CoV-2
- procedure text: morphology score (similarity to uninfected cells); higher = more like uninfected cells
- condition label: 24 h
Below is a list of entries, each paired with its recorded morphology score value.
assay metric: morphology score

compound: Cc1cc2ncc(C(=O)NCC(C)(C)NCC(=O)N3CCC[C@H]3C#N)cn2n1 [anagliptin] (10 µM)
numeric value: -0.112
//
compound: CS(=O)(=O)Oc1ccc2c(NC(N)=O)c(C(=O)c3ccc(Cl)cc3Cl)oc2c1 [lirimilast] (10 µM)
numeric value: 0.204
//
compound: COc1ccc(S(=O)(=O)N2CCC[C@H]2C(=O)Nc2cc(C)cc(C)c2)cc1 (10 µM)
numeric value: -0.0886
//
compound: O=C(O)c1ccc(S(=O)(=O)N(Cc2ccc(OC(F)(F)F)cc2)c2ncc(C(F)(F)F)cc2Cl)cc1 (10 µM)
numeric value: 0.114
//
compound: CCC(=O)OCN1C(=O)C=CC1=O (10 µM)
numeric value: 0.14
//
compound: CCOC(=O)c1ncn2c1CN(C)C(=O)c1cc(F)ccc1-2 [flumazenil] (10 µM)
numeric value: 0.0898
//
compound: CN1CCN2c3c(cccc31)[C@@H]1CN(CCCC(=O)c3ccc(F)cc3)CC[C@@H]12 [lumateperone] (10 µM)
numeric value: 0.348
//
compound: CN[C@H](CC(C)C)C(=O)N[C@H]1C(=O)N[C@@H](CC(N)=O)C(=O)N[C@H]2C(=O)N[C@H]3C(=O)N[C@H](C(=O)N[C@H](C(=O)O)c4cc(O)cc(O)c4-c4cc3ccc4O)[C@H](O[C@H]3C[C@](C)(N)[C@@H](O)[C@H](C)O3)c3ccc(c(Cl)c3)Oc3cc2cc(c3O[C@@H]2O[C@H](CO)[C@@H](O)[C@H](O)[C@H]2O[C@H]2C[C@](C)(NCc3ccc(-c4ccc(Cl)cc4)cc3)[C@@H](O)[C@H](C)O2)Oc2ccc(cc2Cl)[C@H]1O [oritavancin] (10 µM)
numeric value: 0.0399
//
compound: CCCCCCCCCC(=O)OC1(c2ccc(Cl)cc2)CCN(CCCC(=O)c2ccc(F)cc2)CC1 [haloperidol-decanoate] (10 µM)
numeric value: 0.166
//
compound: O=C(CCCCCCCC(=O)NCCO)NCCO [adelmidrol] (10 µM)
numeric value: -0.0406
//
compound: NC(=O)c1ccc(-c2nc(-c3ccccn3)c(-c3ccc4c(c3)OCO4)[nH]2)cc1 (10 µM)
numeric value: -0.124
//
compound: CNC[C@@H]1CC[C@@H](N)[C@@H](O[C@H]2[C@H](O)[C@@H](O[C@H]3OC[C@](C)(O)[C@H](NC)[C@H]3O)[C@H](N)C[C@@H]2N)O1 [micronomicin] (10 µM)
numeric value: 0.0697
//
compound: NC(=O)CN1Cc2ccccc2OC1=O [caroxazone] (10 µM)
numeric value: 0.0974
//
compound: C[C@H](Nc1ncnc2[nH]cnc12)c1nc2ccc(F)cc2c(=O)n1-c1ccccc1 [acalisib] (0.833333 µM)
numeric value: -0.115
//
compound: N[C@H]1CCN(O)C1=O (10 µM)
numeric value: 0.0281
//
compound: CC(C)C[C@H](NC(=O)N1CCCCCC1)C(=O)N[C@H](Cc1cn(C)c2ccccc12)C(=O)N[C@H](Cc1ccccn1)C(=O)O (10 µM)
numeric value: 0.257
//
compound: CCOC(=O)C1=C(N)Oc2ccc(Br)cc2C1C(C#N)C(=O)OCC (stereo unspecified) (10 µM)
numeric value: 0.0924
//
compound: Cc1coc2c1C(=O)C(=O)c1c-2ccc2c1CCCC2(C)C [tanshinone-IIA] (10 µM)
numeric value: 0.159
//
compound: CC(=O)NO [acetohydroxamic-acid] (10 µM)
numeric value: -0.0513
//
compound: CN(C)/N=N/c1[nH]cnc1C(N)=O [dacarbazine] (10 µM)
numeric value: 0.135
//
compound: CNC1CC(c2ccc(Cl)c(Cl)c2)c2ccccc21 (stereo unspecified) [indatraline] (10 µM)
numeric value: -0.112
//
compound: Cc1ccc(C)c(Oc2ccncc2C(=O)N2CCN(C3CC3)c3ccccc32)c1 (10 µM)
numeric value: 0.133
//
compound: CCc1nc(C)ccc1O [emoxipin] (10 µM)
numeric value: 0.143
//
compound: COc1ccc2c(c1)CN(C)CC2c1ccc(Cl)c(Cl)c1 (stereo unspecified) [diclofensine] (10 µM)
numeric value: 0.0249
//
compound: C[C@@H](O)[C@H]1C(=O)N2C(C(=O)O)=C(SCCNC=N)C[C@H]12 [imipenem] (10 µM)
numeric value: -0.161
//
compound: OC[C@H]1O[C@@H](O[C@@H]2[C@H](O)[C@@H](O)[C@H](O[C@H]3[C@H](O)[C@@H](O)C(O)O[C@@H]3CO)O[C@@H]2CO)[C@H](O)[C@@H](O)[C@H]1O (stereo partly specified) [4-galactosyllactose] (10 µM)
numeric value: -0.0673
//
compound: NS(=O)(=O)NCc1csc2ccccc12 (10 µM)
numeric value: 0.212
//
compound: Nc1ccc(S(=O)(=O)Nc2nccs2)cc1 [sulfathiazole] (10 µM)
numeric value: 0.0413
//
compound: COc1ccc(CCC(=O)Nc2nc3ccc(Cl)cc3s2)cc1OC (10 µM)
numeric value: 0.197
//
compound: Cc1ncc([N+](=O)[O-])n1CCO [metronidazole] (10 µM)
numeric value: -0.0912
//
compound: CCCN(CCC)CCc1cccc2c1CC(=O)N2 [ropinirole] (10 µM)
numeric value: -0.139

* * *

- Tested on: Vero E6 infected with SARS-CoV-2
- procedure text: inhibition of SARS-CoV-2 cytopathic effect; higher = more antiviral protection, active = above 15
- condition label: 833.33 nM; 48 h
assay metric: inhibition of SARS-CoV-2 cytopathic effect (%)

compound: CC1(C)[C@H]2CC[C@]1(C)[C@@H](O)[C@H]2O [cis-exo-camphanediol-2,3]
numeric value: 5.23

compound: C=Cc1cc(O)cc2nc(-c3ccc(O)c(F)c3)oc12 [prinaberel]
numeric value: 0.55

compound: O=C(Nc1nc(-c2cc(Cl)cs2)c(N2CCN(C3CCCCC3)CC2)s1)c1cnc(N2CCC(C(=O)O)CC2)c(Cl)c1 [avatrombopag]
numeric value: -3.82

compound: CN(C)CCCOc1nn(Cc2ccccc2)c2ccccc12 [benzydamine]
numeric value: 0.09

compound: Cn1cc([S+](C)[O-])c(=O)c2ccc(F)cc21 (stereo unspecified) [flosequinan]
numeric value: 2.01

compound: CC(C)[C@H](N)C(=O)OCCOCn1cnc2c(=O)nc(N)[nH]c21 [valaciclovir]
numeric value: 0.1
